- Test system: DeltatarO mutant
- experimentSummary: S. aureus survival, RN4220 and DeltatarO strains – OD600, teichoic acid synthesis inhibitors, primary screen (AID 463173)
- studyConditions: S. aureus RN4220 wild type/DeltatarO growth, OD600, 18 h, stronger effect = lower value, screened at 18.75 µg/mL (by protocol)
Out of some 52,000 compounds screened, about 4,300 (8.3%) were called active. The sample holds actives, similar compounds and a random draw of the others, so the mix is not that of the screen.
survival under 50% gets T, anything at or over 50% gets F.

Below, 2 compounds whose answers are already recorded.
COc1ccccc1CC(=O)Nc1ccc2nc(Nc3cccc(C(F)(F)F)c3)cc(C)c2c1	F
O=C(C1CC1)N1CCc2cc(Br)cc(S(=O)(=O)N3CCN(c4cccc(Cl)c4)CC3)c21	F

Q: Record "Cn1c(CCNC(=O)c2ccco2)nc2cc(NC(=O)COc3ccc(Cl)cc3)ccc21" : is its survival strictly below 50%?
Result: F

---

- System: DeltatarO mutant
- experimentSummary: S. aureus survival, RN4220 and DeltatarO strains – OD600, teichoic acid synthesis inhibitors, primary screen (AID 463173)
- studyConditions: S. aureus RN4220 wild type/DeltatarO growth, OD600, 18 h, screened at 18.75 µg/mL (by protocol)
In all, about 52,000 compounds went through this assay and about 4,300 (8.3%) were called active. Cut-off read from the data, not from the text of the source: active = survival mostly below about 52% (no sharp cut-off); inactive = mostly above about 56%. The full list was thinned out, with actives kept by preference.
One label from this list, please: True = active, False = inactive

Below, 5 compounds whose answers are already recorded.
CCCCOc1ccc(C(=O)Nc2cccc(-c3nc4ccccc4o3)c2C)cc1	False
CCCCc1ccc(C(=O)N/C(=C\c2ccc(C)cc2)C(=O)NC2CCCCC2)cc1	False
CCOC(=O)c1c(NC(=O)c2cc3nc(-c4ccc(Br)cc4)cc(C(F)(F)F)n3n2)sc(C(C)=O)c1C	False
COc1ccc(N2CCN(C(=O)C(CC(C)C)NS(=O)(=O)c3ccc4nc(C)sc4c3)CC2)cc1 (configuration not stated)	False
Cc1ccc2nc(-c3cc(NC(=O)COc4ccc(C)c(C)c4)ccc3Cl)oc2c1	True

Q: Please indicate how the test categorized "CC(C)Oc1ccc(CN2CCc3nc(Nc4ccc5c(c4)OCCO5)ncc3C2)cc1" .
Result: False

Q: Please indicate how the test categorized "CN(C)c1ccc(-c2nc3ccc(Cl)cn3c2Nc2ccc3c(c2)OCCO3)cc1" .
Result: False

Q: Please indicate how the test categorized "C/C(=N\NC(=O)c1cc2ccccc2cc1O)c1ccc(N)cc1" .
Result: False

Q: Please indicate how the test categorized "Cc1cc(C)cc(NC(=O)c2cc(CN3CCCC3)on2)c1" .
Result: False

Q: Please indicate how the test categorized CC1=C(C(=O)OC2CCCC2)C(c2ccccc2Cl)CC(=O)N1 (configuration not stated) .
Result: False

Q: Please indicate how the test categorized "CCOc1ccccc1C(=O)Nc1cc2c(cc1N1CCOCC1)n(C)c(=O)n2C" .
Result: False

Q: Please indicate how the test categorized "CCOc1ccc(NC(=O)N(Cc2cn(CC)c3ccccc23)C2CCCCCC2)cc1" .
Result: True

Q: Please indicate how the test categorized Cc1cccc(C(=O)NCC(c2ccc3c(c2)OCO3)N2CCOCC2)c1 (configuration not stated) .
Result: False

Q: Please indicate how the test categorized "Cc1cc(NC(=O)COc2ccccc2)cc(-c2nc3ccccc3o2)c1O" .
Result: False

Q: Please indicate how the test categorized "CCOc1ccc(NC(=O)N(Cc2c[nH]c3ccccc23)C2CCCCCC2)cc1" .
Result: False

Q: Please indicate how the test categorized "CCOc1ccc(/C=C(\C#N)C(=O)NCc2ccco2)cc1OC" .
Result: False

Q: Please indicate how the test categorized "Cc1ccc(CCNC(=O)CCCn2c(=O)c3ccccc3n(Cc3ccccc3C)c2=O)cc1" .
Result: False

Q: Please indicate how the test categorized CCCCOc1ccc(C(=O)OCC2CCCN3CCCCC23)cc1OC (configuration not stated) .
Result: False

Q: Please indicate how the test categorized "CCc1ccc(NC(=O)N(Cc2c[nH]c3ccccc23)C2CCCCCC2)cc1" .
Result: False

Q: Please indicate how the test categorized "CCOc1ccc(-c2cccc(NS(=O)(=O)c3ccc(F)cc3F)c2)nn1" .
Result: False

Q: Please indicate how the test categorized "C=Cc1ccc(CN2C(=O)N(c3cccc(Cl)c3)S(=O)(=O)c3ccccc32)cc1" .
Result: False

Q: Please indicate how the test categorized "Cc1ccc(OCC(=O)Nc2cccc(-c3nc4ccccc4o3)c2C)cc1C" .
Result: True

Q: Please indicate how the test categorized "COc1ccc(-n2ncc(C(=O)NCCCN3CCCCC3)c2C2CCN(C(=O)OC(C)(C)C)CC2)cc1" .
Result: False

Q: Please indicate how the test categorized "Cc1cccc(N(C)C(=O)Cn2cnc3nc4c(cc3c2=O)CCCC4)c1" .
Result: True

Q: Please indicate how the test categorized "C=Cc1ccc(CN2C(=O)N(c3ccc(CC)cc3)S(=O)(=O)c3ccccc32)cc1" .
Result: True

Q: Please indicate how the test categorized CCOC(=O)C(C)NC(=O)c1cc2c(=O)[nH]c3ccc(C)cc3c2s1 (configuration not stated) .
Result: False

Q: Please indicate how the test categorized "Cc1ccc(C)c(NC(=O)Cn2cnc3nc4c(cc3c2=O)CCCC4)c1" .
Result: False

Q: Please indicate how the test categorized "CCOC(=O)Cc1c(C(=O)OCC)nnc2c(-c3ccccc3)c(C)nn12" .
Result: False

---

- Tested on: DeltatarO mutant
- experimentSummary: S. aureus survival, RN4220 and DeltatarO strains – OD600, teichoic acid synthesis inhibitors, primary screen (AID 463173)
- studyConditions: S. aureus RN4220 wild type/DeltatarO growth, OD600, 18 h, screened at 18.75 µg/mL (by protocol)
About 4,300 (8.3%) of roughly 52,000 compounds were called active. No stated cut-off is given here; in the data, active means survival mostly below about 52% (no sharp cut-off); inactive means mostly above about 56%. This is one part of a sample in which actives are shown more often than they occur.
One label from this list, please: active, inactive

Below, 4 compounds whose answers are already recorded.
O=S(=O)(c1ccc(Cl)cc1)c1nc(-c2ccco2)oc1SCc1ccccc1F	inactive
Cc1ccc(S(=O)(=O)c2nc(-c3ccco3)oc2SCC(C)C)cc1	active
CSc1ccc(CCNC(=O)c2csc3c2CCCCC3)cc1	inactive
CC(C)CSc1oc(-c2ccco2)nc1S(=O)(=O)c1ccc(Br)cc1	active

Now take the following compound into account.
Q: Please indicate how the test categorized COc1ccc(C2C(C(=O)Nc3cccnc3)=C(C)Nc3nc(SCc4ccccc4)nn32)cc1 (stereo not given) .
Result: inactive

---

- Test system: DeltatarO mutant
- experimentSummary: S. aureus survival, RN4220 and DeltatarO strains – OD600, teichoic acid synthesis inhibitors, primary screen (AID 463173)
- studyConditions: S. aureus RN4220 wild type/DeltatarO growth, OD600, 18 h, stronger effect = lower value, screened at 18.75 µg/mL (by protocol)
The whole screen tested about 52,000 compounds, of which about 4,300 (8.3%) were called active. This excerpt belongs to a sample that is enriched for actives.
parameterMeasured: survival (%)
Give just the number in %; leave the unit off.

Consider the following illustrative entries.
Cc1ccc(CNC(=O)c2cc(S(=O)(=O)N3CCCCCC3)cn2C)cc1	74
NNC(=O)C1CCN(S(=O)(=O)c2ccccc2N)CC1	95
CCN(CC)S(=O)(=O)c1ccc(OC)c(-n2cnnn2)c1	65
CC1CCCN(S(=O)(=O)c2cc(C(=O)NCCc3ccccc3)n(C)c2)C1 (configuration not stated)	73
Cc1ccc2nc(-c3ccc(Cl)cc3)cc(C(=O)OCC(=O)c3ccccc3)c2c1	58
Cc1cc(C)cc(N2CCn3c2nc2c3c(=O)n(CCc3ccccc3)c(=O)n2C)c1	89

// sample "CC(=O)N1CCc2c(sc3c2c(=O)n(-c2cccc(Cl)c2C)c(=O)n3Cc2ccccc2C)C1" , its survival was 61

// sample "CCc1ccc(NC(=O)c2cnn3c(C(F)F)cc(C)nc23)cc1" , its survival was 96

// sample "COc1cccc(C2=C(C(C)=O)Sc3nnc(C4CCCCC4)n3N2C(C)=O)c1" , its survival was 81

// sample "COc1ccccc1OCC(=O)NCC1(N(C)C)CCCCC1" , its survival was 91

// sample "CC1=C(c2ccc(C(C)C)cc2)S(=O)(=O)N=C1N1CCN(c2ccccc2F)CC1" , its survival was 85

---

- Tested on: DeltatarO mutant
- experimentSummary: S. aureus survival, RN4220 and DeltatarO strains – OD600, teichoic acid synthesis inhibitors, primary screen (AID 463173)
- studyConditions: S. aureus RN4220 wild type/DeltatarO growth, OD600, 18 h, screened at 18.75 µg/mL (by protocol)
Among all 52,000 compounds or so, about 4,300 (8.3%) were called active. Rule as the data show it: active = survival mostly below about 52% (no sharp cut-off); inactive = mostly above about 56%. The full list was thinned out, with actives kept by preference.
One label from this list, please: active, inactive

C#CCOc1ccc(C2C(C(=O)OC)=C(C)NC3=C2C(=O)c2ccccc23)cc1OCC (stereo not given)	inactive
CC(=O)N1CCc2cc(CNC(=O)Nc3ccc(Br)c(C)c3)ccc21	inactive
Cc1ccc(CNC(=O)c2ccc3c(c2)N(Cc2cccc(C)c2)C(=O)CS3)cc1	active
O=C(NCc1ccccc1Cl)c1ccc2c(c1)N(Cc1ccccc1)C(=O)CS2	inactive

Q: Please indicate how the test categorized "O=C(Nc1c2c(nn1-c1ccc(Cl)cc1)CS(=O)(=O)C2)c1cccc(F)c1" .
Result: inactive

Q: Please indicate how the test categorized CCOc1cc(C2C(C(=O)OC)=C(C)NC3=C2C(=O)c2ccccc23)cc(Br)c1OCC (stereo not given) .
Result: inactive

These entries and their values trace back to PubChem BioAssay AID463173.
